Provide the reported z-score of each item.
# Assay remarks: viability profiling in MM1S myeloma cells – cell-based, resazurin fluorescence, basal, 24 h, PK04 Diversity Set, profiling panel (AID 1174);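 also: MM1S multiple myeloma cell line; test concentration not given here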
# Assay context: higher = more signal, called active from +8 up or from −8 down
Give bare numbers.

Here's what some known entries look like.
[[record]]
molecule = "COc1cc2c(cc1OC)CN(C(=O)[C@H]1[C@@H]3C(=O)O[C@@H](c4ccccc4)[C@@H](c4ccccc4)N3[C@@H](c3ccccc3OCCO)[C@]13C(=O)Nc1ccc(C#CCCO)cc13)CC2"
reported_result = -0.442

[[record]]
molecule = "NCCCCCCNC(=O)[C@H]1C[C@H]2C(=O)N[C@@H](Cc3ccccc3)C(=O)N2[C@H]1c1cccc(OCCO)c1"
reported_result = 1.51

[[record]]
molecule = "[N-]=[N+]=Nc1ccccc1[C@H]1OC(c2ccc(OCCCO)cc2)=N[C@@]1(CCS(=O)(=O)c1ccccc1)C(=O)NCc1ccccc1"
reported_result = -0.548

[[record]]
molecule = "O=C1[C@@]23C=C(Br)[C@H](C[C@@H]2COC3)[C@]12CO2"
reported_result = -0.874

[[record]]
molecule = "O=C1C2C=CC(C(O)c3ccc(-c4ccccc4)s3)N(Nc3ccccc3)C2C(=O)N1c1ccccc1 (stereo not drawn)"
reported_result = -0.171

[[record]]
molecule = "CC(C)NC(=O)[C@@H]1c2ccccc2C(=O)N(C(C)C)[C@H]1c1ccc(CO)cc1"
reported_result = 0.537

[[record]]
molecule = "CN1C(=O)C2C=CC(C(O)C=Cc3ccc([N+](=O)[O-])cc3)N(Nc3ccccc3)C2C1=O (stereo not drawn)"
reported_result = -1.55


Here's the next entry for you.
# z-score of CC(=O)n1cc(C(O)C2C=CC3C(=O)NC(=O)C3N2Nc2ccccn2)c2ccccc21 (stereo not drawn) = -1.67

====

Provide the reported composite z-score of each item.
# Assay remarks: probe aWnt5a binding to arrayed compounds – biochemical, biotinylated probe, 635/667 nm fluorescence, primary screen (AID 1113);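 also: score merges 667 nm fluorescence intensity with signal-to-noise per printed feature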
# Assay context: small-molecule microarray, higher = more signal
One number for each entry.

Here's what some known entries look like.
[[record]]
smiles_notation = "C=CCN1Cc2ccccc2[C@@H]2OC(c3ccc(OCCCO)cc3)=N[C@]2(CCS(=O)(=O)c2ccccc2)C1=O"
reported_result = -0.0009

[[record]]
smiles_notation = "[N-]=[N+]=NCc1ccccc1[C@@H]1OC(c2ccc(OCCCO)cc2)=N[C@]1(CCS(=O)(=O)c1ccccc1)C(=O)N1CCOCC1"
reported_result = 0.0357

[[record]]
smiles_notation = "COc1ccc([Si](C)(C)[C@@H]2[C@@H](CCn3cc(CCO)nn3)O[C@]3(C(=O)N(Cc4cccc(N5C(=O)c6cccc7cccc5c67)c4)c4ccccc43)[C@H]2C)cc1"
reported_result = -0.0256


Here's the next entry for you.
# composite z-score of CC(=O)NCCCC[C@@H]1NC(=O)[C@H]2C[C@@H](C(=O)O)[C@@H](c3ccc(O)cc3)N2C1=O = 0.0825

====

# Assay remarks: growth modulation of vineyard yeast isolate – strain RM11-1a, OD600, basal, 24 h, primary screen (AID 1177);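 also: cultures grown under basal conditions with no added stressor; test concentration not given here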
# Assay context: S. cerevisiae RM11-1a growth, OD600, 24 h; higher = more signal, called active from +8 up or from −8 down
The source made the active and inactive calls.
Measured parameter: z-score

Here's what some known entries look like.
[[record]]
compound = "CN(C)CCCCCCNC(=O)[C@@H]1C[C@@H]2C(=O)N[C@@H](CCCC[N+](C)(C)C)C(=O)N2[C@@H]1c1ccc(O)cc1"
reported_result = "-0.0569 (inactive)"

[[record]]
compound = "COCC(=C=CC[C@H](O)c1ccccc1OCCO)CCO"
reported_result = "0.338 (inactive)"

[[record]]
compound = "CC(C)CCC[C@@H](C)[C@H]1CC[C@@]2(C)C3=C(CC[C@]12C)[C@@]1(C)CC[C@H](OC(=O)c2ccc(C(F)(F)F)nc2)C(C)(C)C1CC3 (some centres undefined)"
reported_result = "-2.03 (inactive)"


Here's the next entry for you.
# z-score of CO[C@H]1O[C@H](CO)[C@@H](OC(=O)Nc2ccc(Oc3ccccc3)cc2)[C@H](OC(=O)Nc2ccc3c(c2)OCO3)[C@@H]1OC(=O)Nc1ccc2c(c1)OCO2 = 2.65 (inactive)

====

# Assay remarks: probe aCHRDL2 binding to arrayed compounds – biochemical, biotinylated probe, 635/667 nm fluorescence, primary screen (AID 1100)
# Assay context: small-molecule microarray, higher = more signal
Measured parameter: composite z-score

Here's what some known entries look like.
[[record]]
compound = "COC(=O)C(CC#Cc1ccc2c(c1)[C@]1(C(=O)N2)[C@H](c2ccc(O)cc2)N2[C@H](c3ccccc3)[C@H](c3ccccc3)OC(=O)[C@H]2[C@@H]1C(=O)N1CCN(c2ncccn2)CC1)C(=O)OC"
measured_parameter = "composite z-score"
reported_result = 0.508

[[record]]
compound = "COc1ccc(C(=O)Nc2ccc(CN3C(=O)[C@]4(O[C@H](CC(=O)N5CCC[C@H]5CO)[C@@H]([Si](C)(C)c5ccc(OC)cc5)[C@@H]4C)c4ccccc43)cc2)cc1"
measured_parameter = "composite z-score"
reported_result = 0.0167

[[record]]
compound = "COc1ccc([Si](C)(C)[C@@H]2[C@@H](CC(=O)N3Cc4ccccc4C[C@H]3CO)O[C@]3(C(=O)N(Cc4cccc(N5CCC5=O)c4)c4ccccc43)[C@H]2C)cc1"
measured_parameter = "composite z-score"
reported_result = 0.119


Okay, here is my list. What is composite z-score for each of these?
1. [N-]=[N+]=Nc1ccccc1C[C@]1(C(=O)NCC(O)CO)N=C(c2ccc(OCCCO)cc2)O[C@H]1c1ccccc1 (stereo partly drawn)
2. O=C1OCC=C[C@H]2OC34C=CCN(CCN5CCOCC5)C(=O)[C@H]3N(CCO)C(=O)[C@@H]4[C@@H]12 (stereo partly drawn)
3. COc1ccc(C(O)C2C=CC3C(=O)N(C)C(=O)C3N2NC(=O)OC(C)(C)C)c2ccccc12 (stereo not drawn)
4. O=C1O[C@H](c2ccccc2)[C@H](c2ccccc2)N2[C@H]1[C@@H](C(=O)NC[C@H](O)c1ccccc1)[C@]1(C(=O)Nc3ccccc31)[C@H]2c1ccc(O)cc1

Marked response:
[0.965, -0.224, 1.01, 0.489]

====

# Tested system: E3 ubiquitin-protein ligase XIAP (Homo sapiens)
# Assay remarks: small molecules binding XIAP protein – biophysical, small-molecule microarray, fluorescence 635 nm, primary screen (AID 1181);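 also: score merges 667 nm emission and signal to noise over triplicate slides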
# Assay context: higher = more signal
Output 1 (yes) for composite z-score not less than 0.0009; output 0 (no) otherwise.

Example entries begin here.
[[record]]
compound = "C[N+](C)(C)CCCC[C@@H]1NC(=O)[C@H]2C[C@@H](C(=O)NCCCCCCNC(=O)CS)[C@@H](c3ccc(O)cc3)N2C1=O"
discrete_label = "0 (no)"

[[record]]
compound = "COC(=O)c1c(CC[C@@H](CO)NC(=O)N[C@@H](Cc2ccccc2)Cn2cc(-c3ccccn3)nn2)oc(C(=O)N2CCOCC2)c1C(=O)OC"
discrete_label = "1 (yes)"

[[record]]
compound = "CN(C)CCCCCCNC(=O)[C@@H]1C[C@@H]2C(=O)N3CCC[C@H]3C(=O)N2[C@@H]1c1ccc(O)cc1"
discrete_label = "1 (yes)"

[[record]]
compound = "[N-]=[N+]=NCc1ccccc1[C@H]1OC(c2ccc(OCCCO)cc2)=N[C@@]1(Cc1ccccc1)C(=O)N1CCCCC1"
discrete_label = "0 (no)"


Exam item: Is the recorded value of composite z-score equal to or greater than 0.0009 for this compound? CC(C)N1CC=CC23O[C@@H]4C=CCOC(=O)[C@@H]4[C@H]2C(=O)N(CCCCCO)[C@@H]3C1=O (stereo partly drawn)
Marked response: 0 (no)

Exam item: Is the recorded value of composite z-score equal to or greater than 0.0009 for this compound? Cc1ccc([C@H]2C(C(=O)O)=CCN2S(=O)(=O)c2ccc(C)cc2)cc1
Marked response: 1 (yes)

Exam item: Is the recorded value of composite z-score equal to or greater than 0.0009 for this compound? CCN(CC)c1ccc(N2CC=CC34O[C@@H]5/C=C\CCC(C)OC(=O)C5[C@H]3C(=O)N(CCCCCO)[C@@H]4C2=O)cc1 (stereo partly drawn)
Marked response: 0 (no)

====

# Assay remarks: probe aCHRDL2 binding to arrayed compounds – biochemical, biotinylated probe, 635/667 nm fluorescence, primary screen (AID 1100)
# Assay context: small-molecule microarray, higher = more signal
Measured parameter: composite z-score

Here's what some known entries look like.
[[record]]
molecule = "COC(=O)[C@H](Cc1ccccc1)N[C@H](/C=C/C1CC1)[C@@H](O)Cc1ccccc1"
measured_parameter = "composite z-score"
reported_result = 0.327

[[record]]
molecule = "C=CC[C@]1(C(N)=O)N=C(c2ccc(OCCCO)cc2)O[C@H]1c1ccccc1"
measured_parameter = "composite z-score"
reported_result = 1.11

[[record]]
molecule = "O=C1C2C=CC(C(O)c3ccc(F)cc3)N(Nc3ccc([N+](=O)[O-])cc3)C2C(=O)N1c1ccccc1 (stereo not given)"
measured_parameter = "composite z-score"
reported_result = 0.839

[[record]]
molecule = "C=CCC(OC(C)=O)[C@@H]1[C@@H](N(Cc2ccc(-c3cccc(C(F)(F)F)c3)o2)C(=O)Cc2ccc(OC)cc2)c2cc(OCCCO)ccc2N1C(=O)c1ccc2ccccc2c1 (stereo not given in full)"
measured_parameter = "composite z-score"
reported_result = 0.577

[[record]]
molecule = "[N-]=[N+]=Nc1ccccc1C[C@@]1(C(=O)N2CCCCC2)N=C(c2ccc(OCCCO)cc2)O[C@@H]1c1ccccc1N=[N+]=[N-]"
measured_parameter = "composite z-score"
reported_result = 1.32

[[record]]
molecule = "C=CC[C@]1(C(=O)NCc2ccccc2)N=C(c2ccc(OCCCO)cc2)O[C@H]1c1ccccc1CN=[N+]=[N-]"
measured_parameter = "composite z-score"
reported_result = 0.899

[[record]]
molecule = "CCC(CC)C(O)C1C=CC2C(=O)N(c3ccccc3)C(=O)C2N1Nc1ccccc1 (stereo not given)"
measured_parameter = "composite z-score"
reported_result = 1.15

[[record]]
molecule = "O=C1NC(=O)C2C1C=CC(C(O)c1ccc(-c3ccccc3)s1)N2Nc1ccc(Cl)cc1Cl (stereo not given)"
measured_parameter = "composite z-score"
reported_result = 0.956

[[record]]
molecule = "C=CCNC(=O)[C@H]1[C@@H]2C(=O)O[C@@H](c3ccccc3)[C@@H](c3ccccc3)N2[C@@H](c2ccc(O)cc2)[C@]12C(=O)Nc1ccc(C#CCCO)cc12"
measured_parameter = "composite z-score"
reported_result = 0.198

[[record]]
molecule = "COc1cc(CO)cc(I)c1O[C@H]1C=C(C(=O)NCCO)C[C@@H](N(C(=O)c2cc3ccccc3oc2=O)C2CCCCCC2)[C@@H]1O"
measured_parameter = "composite z-score"
reported_result = -0.302


Okay, here is my list. What is composite z-score for each of these?
1. C=CCN1C(=O)[C@]2(Cc3ccccc3)N=C(c3ccc(OCCCO)cc3)O[C@@H]2c2ccccc21
2. C=CC[C@]12N=C(c3ccc(OCCCO)cc3)O[C@H]1c1ccccc1N(CCS(=O)(=O)c1ccccc1)C2=O
3. C[N+](C)(C)CCCCCCNC(=O)[C@H]1C[C@H]2C(=O)N[C@@H](Cc3ccccc3)C(=O)N2[C@H]1c1cccc(OCCO)c1
4. CCN(CC)c1ccc(N2CC=CC34O[C@@H]5/C=C\CCC(C)OC(=O)C5[C@H]3C(=O)N(CCCCCO)[C@@H]4C2=O)cc1 (stereo not given in full)

Marked response:
0.795
0.777
0.0593
0.288

Okay, here is my list. What is composite z-score for each of these?
1. C=CCNC(=O)[C@H]1[C@@H]2C(=O)O[C@@H](c3ccccc3)[C@@H](c3ccccc3)N2[C@@H](c2ccc(OCCO)cc2)[C@]12C(=O)Nc1ccc(C#CCC(C(=O)OC)C(=O)OC)cc12
2. O=C(O)[C@@]1(CCS(=O)(=O)c2ccccc2)N=C(c2ccc(OCCCO)cc2)O[C@H]1c1ccccc1
3. O=C1[C@H]2C=C(Br)[C@H](C[C@@H]2OCCCCCCO)[C@@]12CO2
4. CCCCN1CC=CC23O[C@@H]4/C=C\CCCOC(=O)C4[C@H]2C(=O)N(CCCCCO)[C@@H]3C1=O (stereo not given in full)

Marked response:
1: 0.655; 2: 0.905; 3: -0.0272; 4: -0.167

Okay, here is my list. What is composite z-score for each of these?
1. COC(=O)C(CC#Cc1ccc2c(c1)[C@]1(C(=O)N2)[C@H](c2ccccc2OCCO)N2[C@H](c3ccccc3)[C@H](c3ccccc3)OC(=O)[C@H]2[C@@H]1C(=O)O)C(=O)OC
2. COC(=O)[C@@]1(Cc2ccc(F)cc2)[C@H]2c3cc(C(=O)N(C)C)n(Cc4ccc(C)o4)c3C[C@H]2CN1C(=O)c1ccccc1
3. COCCCNC(=O)[C@@]1(Cc2ccccc2)N=C(c2ccc(OCCCO)cc2)O[C@H]1c1ccccc1CN=[N+]=[N-]
4. O=C(CS)NCCCCCNC(=O)[C@@H]1C[C@@H]2C(=O)NCC(=O)N2[C@@H]1c1cccc(OCCO)c1

Marked response:
1. 0.0004
2. 0.495
3. 1.32
4. 0.21

Okay, here is my list. What is composite z-score for each of these?
1. COc1ccc(CCNC(=O)[C@@]2(C)c3ccccc3C(=O)N(c3ccc(C)cn3)[C@H]2c2ccc(CO)cc2)cc1
2. COCCOC(=O)N1C(=O)[C@@]2(c3cc(C#Cc4ccc(OC)cc4)ccc31)[C@H](c1ccc(O)cc1)N1[C@H](c3ccccc3)[C@H](c3ccccc3)OC(=O)[C@H]1[C@@H]2C(=O)Nc1nc2ccccc2s1
3. CC(C)[C@@H](C(=O)O)n1cc(C2(O)CCCCC2)nn1
4. COC(=O)[C@]1(CCC(=O)OC(C)(C)C)N=C(c2ccc(OCCCO)cc2)O[C@@H]1c1ccccc1
5. O=C1OCC=C[C@H]2OC34C=CCN(Cn5nnc6ccccc65)C(=O)[C@H]3N(CCCCCO)C(=O)[C@@H]4[C@@H]12 (stereo not given in full)
6. O=c1cccc(-c2ccccc2Cl)o1
7. COc1ccc([Si](C)(C)[C@@H]2[C@@H](CCn3cc(CCO)nn3)O[C@]3(C(=O)N(Cc4cccc(N5C(=O)c6cccc7cccc5c67)c4)c4ccccc43)[C@H]2C)cc1
8. COC(=O)[C@@]1(Cc2ccc(F)cc2)[C@H]2c3cc(C(=O)N(C)C)n(Cc4cc(C)n(C)n4)c3C[C@H]2CN1C(=O)c1ccccc1

Marked response:
[0.156, 0.0407, -0.55, 0.779, 0.586, -0.456, -0.197, 1.19]
